# experimental.target: UniProt:P06401
# assay.remarks: Antagonism at the PR-B progesterone receptor (transactivation assay)
# Format: cell-based
value.type: Antagonistic Activity Efficacy (%)
Entry rule: numbers only, all in %.

Ask: Request body: readout Antagonistic Activity Efficacy, system UniProt:P06401, query Cc1noc(=O)c2ccc(NC(=O)C(O)(C#Cc3ccccc3C(F)(F)F)CC(C)(C)c3ccccc3)cc12 (racemic) [Example 24] . Return the value.
Result: 100

Ask: Request body: readout Antagonistic Activity Efficacy, system UniProt:P06401, query Cc1cc(C)c(C#CC(O)(CC(C)(C)c2ccccc2)C(=O)Nc2ccc3c(=O)onc(C)c3c2)cc1C (racemic) [Example 35] . Return the value.
Result: 100

Ask: Request body: readout Antagonistic Activity Efficacy, system UniProt:P06401, query COc1ccc(C#CC(O)(CC(C)(C)c2ccccc2)C(=O)Nc2ccc3c(=O)onc(C)c3c2)cc1 (racemic) [Example 18] . Return the value.
Result: 89

Ask: Request body: readout Antagonistic Activity Efficacy, system UniProt:P06401, query Cc1noc(=O)c2ccc(NC(=O)C(O)(C#Cc3ccccc3)CC3(c4ccccc4Cl)CCCC3)cc12 (racemic) [Example 5] . Return the value.
Result: 86

Ask: Request body: readout Antagonistic Activity Efficacy, system UniProt:P06401, query Cc1noc(=O)c2ccc(NC(=O)C(O)(C#Cc3ccccc3)CC(C)(C)c3ccccc3)cc12 (racemic) [Example 16] . Return the value.
Result: 82

Ask: Request body: readout Antagonistic Activity Efficacy, system UniProt:P06401, query Cc1ccc(C#CC(O)(CC(C)(C)c2ccccc2)C(=O)Nc2ccc3c(=O)onc(C)c3c2)cc1 (single isomer, unassigned; (-)) [Example 17b] . Return the value.
Result: 88

Ask: Request body: readout Antagonistic Activity Efficacy, system UniProt:P06401, query C#CC(O)(CC(C)(C)c1ccccc1)C(=O)Nc1ccc2c(=O)onc(C)c2c1 (racemic) [Example 14] . Return the value.
Result: 53

====

# experimental.target: PR-B progesterone receptor (Homo sapiens)
# Sequence (P06401 whole entry): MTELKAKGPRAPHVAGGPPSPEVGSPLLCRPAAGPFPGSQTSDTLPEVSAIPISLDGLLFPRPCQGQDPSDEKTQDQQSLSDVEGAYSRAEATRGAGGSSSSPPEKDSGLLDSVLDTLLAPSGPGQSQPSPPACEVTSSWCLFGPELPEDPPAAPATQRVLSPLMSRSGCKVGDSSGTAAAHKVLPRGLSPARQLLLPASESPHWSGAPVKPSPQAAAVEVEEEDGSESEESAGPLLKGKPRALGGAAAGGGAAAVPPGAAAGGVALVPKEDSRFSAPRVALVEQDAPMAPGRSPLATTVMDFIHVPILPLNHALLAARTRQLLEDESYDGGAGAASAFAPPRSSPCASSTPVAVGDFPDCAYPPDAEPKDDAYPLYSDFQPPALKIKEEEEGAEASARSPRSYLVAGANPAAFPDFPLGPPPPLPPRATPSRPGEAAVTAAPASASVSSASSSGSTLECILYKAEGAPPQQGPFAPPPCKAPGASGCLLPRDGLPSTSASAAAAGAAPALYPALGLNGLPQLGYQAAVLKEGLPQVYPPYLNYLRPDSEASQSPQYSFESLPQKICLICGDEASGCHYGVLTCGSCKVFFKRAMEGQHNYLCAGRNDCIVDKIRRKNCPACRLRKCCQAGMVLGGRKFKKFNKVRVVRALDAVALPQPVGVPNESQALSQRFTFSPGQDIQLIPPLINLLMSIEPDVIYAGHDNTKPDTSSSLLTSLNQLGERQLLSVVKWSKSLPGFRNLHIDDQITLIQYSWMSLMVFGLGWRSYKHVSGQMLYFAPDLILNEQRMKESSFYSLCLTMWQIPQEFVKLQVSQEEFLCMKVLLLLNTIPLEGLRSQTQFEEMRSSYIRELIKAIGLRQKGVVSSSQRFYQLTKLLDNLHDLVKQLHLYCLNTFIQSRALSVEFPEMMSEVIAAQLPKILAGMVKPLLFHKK
# assay.remarks: Agonism on the PR-B progesterone receptor (transactivation assay)
# Type: cell-based
value.type: Agonistic Activity Efficacy (%)
Entry rule: numbers only, all in %.

Ask: I would be grateful if you could share the reported Agonistic Activity Efficacy for Cc1noc(=O)c2ccc(NC(=O)C(O)(C#Cc3ccccc3C(F)(F)F)CC(C)(C)c3ccccc3)cc12 (racemic) .
Result: 0

Ask: I would be grateful if you could share the reported Agonistic Activity Efficacy for Cc1noc(=O)c2ccc(NC(=O)C(O)(C#Cc3ccccc3)CC3(c4ccccc4Cl)CCCC3)cc12 (racemic) .
Result: 10

Ask: I would be grateful if you could share the reported Agonistic Activity Efficacy for C#CC(O)(CC(C)(C)c1ccccc1)C(=O)Nc1ccc2c(=O)onc(C)c2c1 (racemic) .
Result: 35

Ask: I would be grateful if you could share the reported Agonistic Activity Efficacy for Cc1ccc(C#CC(O)(CC(C)(C)c2ccccc2)C(=O)Nc2ccc3c(=O)onc(C)c3c2)cc1 (single isomer, unassigned; (-)) [Example 17b] .
Result: 7

Ask: I would be grateful if you could share the reported Agonistic Activity Efficacy for Cc1cc(C)c(C#CC(O)(CC(C)(C)c2ccccc2)C(=O)Nc2ccc3c(=O)onc(C)c3c2)cc1C (racemic) .
Result: 0

Ask: I would be grateful if you could share the reported Agonistic Activity Efficacy for COc1ccc(C#CC(O)(CC(C)(C)c2ccccc2)C(=O)Nc2ccc3c(=O)onc(C)c3c2)cc1 (racemic) .
Result: 8

Ask: I would be grateful if you could share the reported Agonistic Activity Efficacy for Cc1noc(=O)c2ccc(NC(=O)C(O)(C#Cc3ccccc3)CC(C)(C)c3ccccc3)cc12 (racemic) .
Result: 13
